Test system: PPARg:RXRa (NR concentration 180 nM, RXRa partner concentration 90 nM)
testDetails: PBM binding z-score (relative to random genomic background probes); higher = stronger binding; sequences stand for … in GC…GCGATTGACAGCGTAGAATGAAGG
propertyMeasured: PBM binding z-score
Keep the answer to the number alone.

sequenceChain	value
CCTTGGAGGACAACAGGAGGTCAGAGCTGCCAGA	0.731
GCATATAGGTAATACAAGGTGGAAGTCCGATTGT	0.978
CGTCCAAGGTCATGGTCAGTGAAAGAGACTCGAA	5.32
TTACCAAGGTGAAAGGTCCTTGATGCACGCCTTG	5.66
TAGCCTAGGTCATTCAGGGGCCATTATAGAAAGC	2.32

In: Fill: PBM binding z-score (PPARg:RXRa (NR concentration 180 nM, RXRa partner concentration 90 nM)) for this sequence CCTCGGAGGACAACAGGAGTTCAGAGCTGCCAGA
Out: 0.0297

In: Fill: PBM binding z-score (PPARg:RXRa (NR concentration 180 nM, RXRa partner concentration 90 nM)) for this sequence AGAATGAGGTTACCAAAGATAAGGGAAACGCTTG
Out: 2.87

In: Fill: PBM binding z-score (PPARg:RXRa (NR concentration 180 nM, RXRa partner concentration 90 nM)) for this sequence TTACCAAGGTGAGCTGAGGTCGTTGAGCCAACTC
Out: -0.225

In: Fill: PBM binding z-score (PPARg:RXRa (NR concentration 180 nM, RXRa partner concentration 90 nM)) for this sequence TCTATGAGTTGAAGGGCAACCGACGAGTCCGTTT
Out: 0.607
